target.of.assay: HDAC2 (Homo sapiens)
Construct: HDAC2 (full length, C-terminal His tag, BPS Bioscience, cat. #: 50002); purchased BPS Bioscience 50002
Sequence (Q92769 whole entry): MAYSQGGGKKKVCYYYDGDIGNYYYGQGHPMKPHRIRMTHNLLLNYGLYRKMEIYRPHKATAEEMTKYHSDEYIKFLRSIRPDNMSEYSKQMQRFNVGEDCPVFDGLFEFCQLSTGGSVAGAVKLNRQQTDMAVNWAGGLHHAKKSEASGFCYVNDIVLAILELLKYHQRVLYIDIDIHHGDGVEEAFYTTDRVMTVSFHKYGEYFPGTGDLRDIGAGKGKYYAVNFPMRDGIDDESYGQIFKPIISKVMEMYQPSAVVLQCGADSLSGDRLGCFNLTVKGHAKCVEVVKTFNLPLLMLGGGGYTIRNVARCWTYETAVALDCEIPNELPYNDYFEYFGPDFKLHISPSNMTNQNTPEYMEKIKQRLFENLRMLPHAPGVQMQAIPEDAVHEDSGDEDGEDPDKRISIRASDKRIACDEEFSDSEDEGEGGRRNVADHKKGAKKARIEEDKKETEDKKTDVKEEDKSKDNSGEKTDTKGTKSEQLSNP
assay.info: HDAC inhibition assay (fluorogenic, Ac-Leu-Gly-Lys(Ac)-AMC)
Assay type: biochemical
measurement.context: resynthesized peptide in solution; Cheng-Prusoff; n = 2
Non-standard residues stand in square brackets, D forms with d. Residues, ends and D or L forms follow the SMILES beside them. *: point of attachment. Asu = N[C@@H](CCCCCC(=O)O)C(=O)O; NHOH = ON*
Please respond with reported Ki for every item in the list.
# output: number + unit

Exam item: May I ask what Ki has been recorded for CC(=O)N[C@@H](C)C(=O)N[C@H](C(=O)NCC(=O)NCC(=O)N[C@H](C(=O)N[C@@H](CCCCCC(=O)NO)C(=O)N[C@@H](CCCCN)C(=O)N1CCC[C@H]1C(=O)N[C@@H](Cc1c[nH]cn1)C(=O)N[C@@H](CCCNC(=N)N)C(=O)N[C@@H](Cc1ccc(O)cc1)C(=O)N[C@@H](CCCNC(=N)N)C(=O)N1CCC[C@H]1C(=O)NCC(=O)N[C@H](C(=O)N[C@H](C(=O)N[C@@H](Cc1c[nH]c2ccccc12)C(N)=O)C(C)C)[C@@H](C)O)C(C)C)[C@@H](C)O [15a] (Ac-ATGGV[Asu](NHOH)KPHRYRPGTVW-NH2) ?
Marked response: 70.2 nM

Exam item: May I ask what Ki has been recorded for CC(=O)N[C@@H](C)C(=O)N1CCC[C@H]1C(=O)N[C@@H](C)C(=O)N1CCC[C@H]1C(=O)N[C@@H](CCCCN)C(=O)N[C@@H](CCCCCC(=O)NO)C(=O)NCC(=O)N[C@@H](CO)C(=O)N[C@@H](CCCCN)C(=O)N[C@@H](CCCCN)C(=O)N[C@@H](C)C(=O)N[C@H](C(=O)N[C@H](C(=O)N[C@@H](CCCCN)C(=O)N[C@@H](C)C(=O)N[C@@H](CCC(N)=O)C(=O)N[C@@H](Cc1c[nH]c2ccccc12)C(N)=O)[C@@H](C)O)C(C)C [10a] (Ac-APAPK[Asu](NHOH)GSKKAVTKAQW-NH2) ?
Marked response: 239 nM

###

target.of.assay: HDAC4 (Homo sapiens, UniProt P56524)
Construct: purchased BPS Bioscience 50004
Sequence (P56524 627-1084): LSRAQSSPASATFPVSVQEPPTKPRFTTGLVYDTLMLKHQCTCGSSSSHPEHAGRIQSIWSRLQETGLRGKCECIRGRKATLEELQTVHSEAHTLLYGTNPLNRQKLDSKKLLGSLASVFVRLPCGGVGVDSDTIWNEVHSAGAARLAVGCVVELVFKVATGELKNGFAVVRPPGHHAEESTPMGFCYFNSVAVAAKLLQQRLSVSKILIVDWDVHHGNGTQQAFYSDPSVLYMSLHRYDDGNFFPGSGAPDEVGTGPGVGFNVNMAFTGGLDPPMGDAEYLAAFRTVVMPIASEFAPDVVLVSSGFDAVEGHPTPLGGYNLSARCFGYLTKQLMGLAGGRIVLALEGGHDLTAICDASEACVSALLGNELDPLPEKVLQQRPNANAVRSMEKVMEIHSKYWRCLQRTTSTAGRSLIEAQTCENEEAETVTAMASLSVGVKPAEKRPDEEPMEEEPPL
assay.info: HDAC inhibition assay (fluorogenic, Ac-Leu-Gly-Lys(Tfa)-AMC)
Type: biochemical
measurement.context: inhibitor 50 µM, 2 internal replicates
Non-standard residues stand in square brackets, D forms with d. Residues, ends and D or L forms follow the SMILES beside them. *: point of attachment. Asu = N[C@@H](CCCCCC(=O)O)C(=O)O; NHOH = ON*
recorded.endpoint: residual enzymatic activity relative to control wells

Exam item: May I ask what residual enzymatic activity relative to control wells has been recorded for CC(=O)N[C@@H](CC(C)C)C(=O)NCC(=O)N[C@@H](CCCCN)C(=O)NCC(=O)NCC(=O)N[C@@H](C)C(=O)N[C@@H](CCCCCC(=O)NO)C(=O)N[C@@H](CCCNC(=N)N)C(=O)N[C@@H](Cc1c[nH]cn1)C(=O)N[C@@H](CCCNC(=N)N)C(=O)N[C@@H](CCCCN)C(=O)N[C@H](C(=O)N[C@@H](CC(C)C)C(=O)N[C@@H](CCCNC(=N)N)C(=O)N[C@@H](CC(=O)O)C(=O)N[C@@H](CC(N)=O)C(=O)N[C@@H](Cc1c[nH]c2ccccc12)C(N)=O)C(C)C [16a] (Ac-LGKGGA[Asu](NHOH)RHRKVLRDNW-NH2) ?
Marked response: 68.39

Exam item: May I ask what residual enzymatic activity relative to control wells has been recorded for CC(=O)N[C@@H](C)C(=O)N1CCC[C@H]1C(=O)N[C@@H](C)C(=O)N1CCC[C@H]1C(=O)N[C@@H](CCCCN)C(=O)N[C@@H](CCCCCC(=O)NO)C(=O)NCC(=O)N[C@@H](CO)C(=O)N[C@@H](CCCCN)C(=O)N[C@@H](CCCCN)C(=O)N[C@@H](C)C(=O)N[C@H](C(=O)N[C@H](C(=O)N[C@@H](CCCCN)C(=O)N[C@@H](C)C(=O)N[C@@H](CCC(N)=O)C(=O)N[C@@H](Cc1c[nH]c2ccccc12)C(N)=O)[C@@H](C)O)C(C)C [10a] (Ac-APAPK[Asu](NHOH)GSKKAVTKAQW-NH2) ?
Marked response: 77.53
